List of EC50 values.
- experimentalSystem: Melanocortin receptor 4 (Homo sapiens, UniProt P32245)
- Sequence (P32245 whole entry): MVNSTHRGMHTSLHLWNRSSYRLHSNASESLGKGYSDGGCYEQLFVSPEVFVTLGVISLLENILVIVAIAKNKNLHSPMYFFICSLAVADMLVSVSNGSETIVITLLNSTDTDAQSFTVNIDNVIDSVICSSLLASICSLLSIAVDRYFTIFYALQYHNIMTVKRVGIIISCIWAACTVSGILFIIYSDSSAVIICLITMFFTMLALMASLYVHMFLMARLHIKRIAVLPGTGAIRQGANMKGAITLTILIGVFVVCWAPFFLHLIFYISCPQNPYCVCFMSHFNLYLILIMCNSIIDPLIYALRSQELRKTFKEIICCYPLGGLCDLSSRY
- experimentSummary: Effective concentration of peptide at 50% maximal cAMP generation
- Assay type: functional

Q: Which measured EC50 value corresponds to CC(=O)N[C@H]1CSSC[C@@H](C(=O)N2CCC[C@H]2C(=O)N2CCC[C@H]2C(=O)N[C@@H](CCCCN)C(=O)N[C@@H](CC(=O)O)C(N)=O)NC(=O)[C@H](Cc2c[nH]c3ccccc23)NC(=O)[C@H](CCCNC(=N)N)NC(=O)[C@@H](Cc2ccccc2)NC(=O)[C@@H]2CCCN2C(=O)[C@H](CCC(=O)O)NC1=O ?
A: > 10 µM

Q: Cool, now CC(=O)N[C@@H]1CSSC[C@@H](C(=O)N2CCC[C@H]2C(=O)N2CCC[C@H]2C(=O)N[C@@H](CCCCN)C(=O)N[C@@H](CC(=O)O)C(N)=O)NC(=O)[C@H](Cc2c[nH]c3ccccc23)NC(=O)[C@H](CCCN=C(N)N)NC(=O)[C@@H](Cc2ccc3ccccc3c2)NC(=O)[C@H](Cc2c[nH]cn2)NC(=O)[C@H](CCC(=O)O)NC1=O
A: > 10 µM

Q: Cool, now CC(=O)N[C@@H]1C(=O)N[C@@H](CCC(=O)O)C(=O)N[C@@H](Cc2c[nH]cn2)C(=O)N[C@H](Cc2ccccc2)C(=O)N[C@@H](CCCN=C(N)N)C(=O)N[C@@H](Cc2c[nH]c3ccccc23)C(=O)N[C@H](C(=O)N2CCC[C@H]2C(=O)N2CCC[C@H]2C(=O)N[C@@H](CCCCN)C(=O)N[C@@H](CC(=O)O)C(N)=O)CSSC1(C)C
A: 0.0063 µM

* * *

Test system Melanocortin receptor 4 (Homo sapiens), IC50 listed for each of the molecules.
Response body: numeric value in µM, unit text excluded.

Example cases with answers are listed next.
{"mol": "CC(=O)N[C@H]1CSSC[C@H](C(=O)N2CCC[C@H]2C(=O)N2CCC[C@H]2C(=O)N[C@@H](CCCCN)C(=O)N[C@@H](CC(=O)O)C(N)=O)NC(=O)[C@H](Cc2c[nH]c3ccccc23)NC(=O)[C@H](CCCN=C(N)N)NC(=O)[C@@H](Cc2ccc3ccccc3c2)NC(=O)[C@H](Cc2c[nH]cn2)NC(=O)[C@H](CCC(=O)O)NC1=O", "IC50 (µM)": 40}
{"mol": "CC(=O)N[C@H]1CSSC[C@@H](C(=O)N2CCC[C@H]2C(=O)N2CCC[C@H]2C(=O)N[C@@H](CCCCN)C(=O)N[C@@H](CC(=O)O)C(N)=O)NC(=O)[C@H](Cc2c[nH]c3ccccc23)NC(=O)[C@H](CCCNC(=N)N)NC(=O)[C@@H](Cc2ccc3ccccc3c2)NC(=O)[C@@H]2CCCN2C(=O)[C@H](CCC(=O)O)NC1=O", "IC50 (µM)": 17}

--- query ---
Q: Which measured IC50 value corresponds to CC(=O)N[C@@H]1CSSC[C@@H](C(=O)N2CCC[C@H]2C(=O)N2CCC[C@H]2C(=O)N[C@@H](CCCCN)C(=O)N[C@@H](CC(=O)O)C(N)=O)NC(=O)[C@H](Cc2c[nH]c3ccccc23)NC(=O)[C@H](CCCN=C(N)N)NC(=O)[C@@H](Cc2ccc3ccccc3c2)NC(=O)[C@H](Cc2c[nH]cn2)NC(=O)[C@H](CCC(=O)O)NC1=O ?
A: 3.7
